molecular target: CCAAT/enhancer-binding protein beta (Homo sapiens) (UniProt P17676); test: ATG_C_EBP_CIS: Attagene CIS-FACTORIAL HepG2 Assay for human CCAAT/Enhancer Binding Protein (C/EBP) beta (AID 2282927); conditions: HepG2 Attagene cis-factorial transcription factor reporter; actives raise or lower the signal
Sequence (P17676 whole entry, looked up): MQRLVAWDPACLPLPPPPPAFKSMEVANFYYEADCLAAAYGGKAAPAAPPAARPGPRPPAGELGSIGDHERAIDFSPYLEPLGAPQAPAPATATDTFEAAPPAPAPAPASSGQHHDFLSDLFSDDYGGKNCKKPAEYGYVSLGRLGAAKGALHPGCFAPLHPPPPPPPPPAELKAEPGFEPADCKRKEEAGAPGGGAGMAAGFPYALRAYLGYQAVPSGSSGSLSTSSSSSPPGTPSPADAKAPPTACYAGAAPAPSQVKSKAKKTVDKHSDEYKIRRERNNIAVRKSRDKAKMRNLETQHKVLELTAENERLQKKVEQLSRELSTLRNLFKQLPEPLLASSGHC
Calls of active or inactive are those of the source. Rule for the calls: active = hit-call score of the fitted dose curve at least 0.9, where 1 is the maximum; inactive = score below 0.9.
Your response should consist of one outcome taken from active, inactive

How was `CCCCCCCCCCCCN(C)C` classified in this test? inactive

Another molecule: `CC(C)(C)c1cc([N+](=O)[O-])cc(C(C)(C)C)c1O` inactive

Another molecule to look at: `Cc1cccc(N=Nc2ccc(N(C)C)cc2)c1` inactive

// repeat for `c1ccc(-c2cccc(-c3ccccc3)c2)cc1` and report inactive

Now this one: O=C(NC(=O)c1c(F)cccc1F)Nc1cc(Cl)c(OC(F)(F)C(F)C(F)(F)F)cc1Cl (centres undefined) inactive

Subsequent entry: `Cc1ccccc1OP(=O)(Oc1ccccc1)Oc1ccccc1` inactive

Moving on to the next molecule: `N#Cc1ccncc1` inactive

Next up: COC(F)(C(F)(F)C(F)(F)F)C(F)(C(F)(F)F)C(F)(F)F (centres undefined) inactive

Entry to check: `C[C@H]1C(=O)O[C@@H]2CCN3CC=C(COC(=O)[C@](C)(O)[C@]1(C)O)[C@H]23` inactive

Same question for `N#Cc1cccnc1` please. inactive

Continue with `Brc1ccc(Oc2c(Br)cc(Br)cc2Br)c(Br)c1` inactive

Can you handle `NC(=O)c1ccc(N)nc1` next? inactive

And `CC(C)[N+](=O)[O-]` ? inactive

Proceed to `C=CC(=O)OCC(COC(=O)C=C)(COC(=O)C=C)COC(=O)C=C` inactive

Input `CCOc1cc(C=O)ccc1O` inactive

Input `O=[N+]([O-])c1cccc2ccccc12` inactive

Then what about the molecule `O=NN1CCCCCC1` ? inactive

And the next one, `CC(F)(F)CC(F)(F)F` ? inactive

`Oc1c(Br)cc(Br)cc1Br` ? inactive

// next record `Cc1ccc2nc3sc(=O)sc3nc2c1` active

// repeat for `Oc1cccc(-c2ccccc2)c1` and report inactive

Now try `CC(=O)CN(CC(C)=O)N=O` . inactive

Now consider `C=CCN=C=S` . inactive

Then `O=C(NC(=O)c1c(F)cccc1F)Nc1cc(Cl)c(F)c(Cl)c1F` ? inactive

Try this molecule next: OC(Cc1ccccc1Cl)(Cn1[nH]cnc1=S)C1(Cl)CC1 (centres undefined) inactive

And what about the molecule `OC[P+](CO)(CO)CO` ? inactive

Now consider `O=C(N[C@H]1CN2CCC1CC2)c1ccc2c(c1)OCCO2` and answer again. inactive

Next record, please: `Brc1ccc(Br)cc1` inactive

Try this molecule too: `c1ccc2c(c1)Oc1ccccc1O2` inactive

* * *

molecular target: Transcription factor Sp1 (Homo sapiens); assay: ATG_Sp1_CIS: Attagene CIS-FACTORIAL HepG2 Assay for human Specificity Protein 1 (Sp1) (AID 2282961); settings: HepG2 Sp1 cis-reporter transcription, actives raise or lower the signal
The source made the active and inactive calls. The calls were made as follows: active = hit-call score of the fitted dose curve at least 0.9, where 1 is the maximum; inactive = score below 0.9.
Thanks in advance; please answer with one of these: y (active), n (inactive)

Per the records of this test, what outcome belongs to `CC(C)(C)c1cc([N+](=O)[O-])cc(C(C)(C)C)c1O` ? n

Same question for `CC(F)(F)CC(F)(F)F` please. n

Param item: `C=C(C)C(=O)OCCCCOC(=O)C(=C)C` n

// same read-out, input: `N#CS` n

Entry `N#Cc1ccccc1N` please n

Same again, this time with `c1ccc(-c2cccc(-c3ccccc3)c2)cc1` n

Moving on to `FC(F)OCC(F)(F)C(F)(F)F` n

Now the compound CC(C)[C@H](C(=O)OC(C#N)c1cccc(Oc2ccccc2)c1)c1ccc(OC(F)F)cc1 (stereo partly drawn) n

Also need `COc1ccc(N)cc1` , thanks. n

Please do the same for `Oc1ccc(Cc2ccc(O)cc2)cc1` as well. n

Then `Cc1ccc(OP(=O)(Oc2ccc(C)cc2C)Oc2ccc(C)cc2C)c(C)c1` ? y

Can you handle `COc1ccc([N+](=O)[O-])cc1O` next? n

Now try `O=C(O)COc1cc(Cl)c(Cl)cc1Cl` . n

And the next one, `CCCCN(CCCC)C(=S)S` ? n

Quick one: `C[As+](C)(C)CC(=O)[O-]` n

Same again, this time with `Nc1nc(=S)[nH][nH]1` n

For `Oc1cccc(-c2ccccc2)c1` then? y

Proceed to `CC(=O)C(F)(F)C(F)(F)F` n

Queued: `C[CH2][Hg][S]c1ccccc1C(=O)O` y

Entry `CC(C)(C)c1ccccc1O` please n

Try this compound next: `OC(c1ccc(Cl)cc1)(c1ccc(Cl)cc1)c1cccnc1` n

Repeat for the following compound: `O=NN1CCCCCC1` n

One more compound: COC(F)(C(F)(F)C(F)(F)F)C(F)(C(F)(F)F)C(F)(F)F (stereo not drawn) n

Okay, and `Nc1ncn[nH]1` ? n

Same thing, different compound: `Nc1ccc(-c2ccccc2)cc1` n

Would you mind doing `CCOP(=S)(OCC)OP(=S)(OCC)OCC` as well? n

`O=C(O)CC(O)(CC(=O)O)C(=O)O` , same question. n

What about `O=C(Cl)OCCOCCOC(=O)Cl` ? n

Also check `O=C1C=CC(=O)c2ccccc21` n

What about this compound? `COC(=O)Nc1cccc(OC(=O)Nc2cccc(C)c2)c1` n

Subsequent entry: `[F][Sn]([c]1ccccc1)([c]1ccccc1)[c]1ccccc1` y

Here is the next compound: CCCCC(CC)C(=O)Cl (stereo not drawn) n

Try this compound too: `Nc1cccnc1` n

Could you do the same for `CCCCCCCCCCCCBr` , please? n

Check `O=NN1CCOCC1` too. n

Could you do the same for O=C(NC(=O)c1c(F)cccc1F)Nc1cc(Cl)c(OC(F)(F)C(F)C(F)(F)F)cc1Cl (stereo not drawn) , please? n

Record: CC(C)(C1CCC(O)CC1)C1CCC(O)CC1 (stereo not drawn) n

Param item: `C=CC(=O)OCC(COC(=O)C=C)(COC(=O)C=C)COC(=O)C=C` y

Param item: `CCCCCCCCCCCCc1cccc(S(=O)(=O)O)c1` n

Further, for `CNC(=O)N(C)c1nc2ccccc2s1` ? n

// repeat for CCCSP(=S)(OCC)Oc1ccc(SC)cc1 (stereo not drawn) and report n

Next entry: `N#Cc1ccccc1Cl` n

Request: C#CCOC(=O)/C=C(C)/C=C/CC(C)CCCC(C)C (stereo not drawn) n

Now consider `COCCl` and answer again. n

Param item: `Clc1cnc(Oc2ccc(Oc3ncc(Cl)cc3Cl)cc2)c(Cl)c1` n

Also `CCNc1nc(NCC)nc(SC)n1` , if possible. n

One more compound: `O=[N+]([O-])c1ccc(Nc2ccccc2)cc1` n

Next compound up: `O=C(CCl)NCO` n

Further, for `CN(N=O)c1ccc([N+](=O)[O-])cc1` ? n

What about `CCOP(=S)(OCC)O/N=C(\C#N)c1ccccc1` ? n

// repeat for `C1CCC(C2CCCCC2)CC1` and report n

Then this compound: `Cc1ccccc1OP(=O)(Oc1ccccc1)Oc1ccccc1` n

One more compound: `CC1(C)[C@H](C(=O)O[C@H](C#N)c2cccc(Oc3ccccc3)c2)[C@@H]1/C=C(\Cl)C(F)(F)F` n

Would you mind doing OC(Cc1ccccc1Cl)(Cn1[nH]cnc1=S)C1(Cl)CC1 (stereo not drawn) as well? n

Check `[Cl][Sn]([c]1ccccc1)([c]1ccccc1)[c]1ccccc1` too. y

Same question, `CS(=O)(=O)c1ccc(C(=O)C2C(=O)CCCC2=O)c(Cl)c1COCC(F)(F)F` this time n

Now try CC(C=O)Cc1ccc2c(c1)OCO2 (stereo not drawn) . n

# iterate: `Oc1c(Cl)cc(Cl)cc1Cl` n

* * *

Biological target: CCAAT/enhancer-binding protein beta (Homo sapiens) (UniProt P17676)
Test: ATG_C_EBP_CIS: Attagene CIS-FACTORIAL HepG2 Assay for human CCAAT/Enhancer Binding Protein (C/EBP) beta (AID 2282927)
Conditions: HepG2 Attagene cis-factorial transcription factor reporter; actives raise or lower the signal
Description: ATG_CIS is a cell-based, multiplexed-readout assay that uses HepG2, a human liver cell line, with measurements taken at 24 hours after chemical dosing in a 24-well plate.ATG_C_EBP_CIS is one of 52 assay component(s) measured or calculated from the ATG_CIS assay. […] This assay endpoint, ATG_C_EBP_CIS, was analyzed with bidirectional fitting relative to DMSO as the negative control and baseline of activity. […]
Activity calls are given as the source filed them. Rule for the calls: active = hit-call score of the fitted dose curve at least 0.9, where 1 is the maximum; inactive = score below 0.9.
Entry note: the call must match one of true for active, false for inactive

How was CC(C)[C@@H](Nc1ccc(C(F)(F)F)cc1Cl)C(=O)OC(C#N)c1cccc(Oc2ccccc2)c1 (stereo partly drawn) classified in this test? false

Same read-out for `O=c1[nH]c2ccccc2n1C1CCN(CCCC(c2ccc(F)cc2)c2ccc(F)cc2)CC1` ? true

Ok, now `CCCCCCCCCCCCc1cccc(S(=O)(=O)O)c1` false

Quick one: `Nc1ccc(Br)cc1` false

Further, for `Brc1c(Br)c(Br)c(Oc2c(Br)c(Br)c(Br)c(Br)c2Br)c(Br)c1Br` ? false

Try the molecule `O=NN1CCOCC1` false

Next molecule: `O=C(Cc1ccccc1)OCCc1ccccc1` false

Param item: `CC(C)(c1ccccc1)c1cc(-n2nc3ccccc3n2)c(O)c(C(C)(C)c2ccccc2)c1` false

Record: `C[N+](C)(C)Cc1ccccc1` false

Try `CCN(N=O)C(N)=O` next. false

Let us now turn to CC(C)C(C)(N)C#N (stereo not drawn) false

Queued: `CCOCn1c(-c2ccc(Cl)cc2)c(C#N)c(Br)c1C(F)(F)F` false

Another molecule to check: CCCCCCCCCCCCCCC(Br)C(=O)O (stereo not drawn) true
